Cited source for all entries: paper PMC6156138

experiment: Cytotoxicity assay (Cytotoxicity LDH Assay Kit); assay type: cell-based; details: human, Jurkat cells, read-out: CC50 ± SD against Jurkat
REPORTED ENDPOINT: CC50 at 24 h
Answer as a quantity: numeral, then unit.

Data request: Fill in: CC50 at 24 h of O=C(CCCCCCC(=O)Nc1ccccc1)NO is ___
Data returned: 90 µM

Data request: Fill in: CC50 at 24 h of CC[C@H](NC(=O)[C@H](C)NC)C(=O)N1C[C@@H](O)C[C@H]1Cc1c(-c2[nH]c3cc(F)ccc3c2C[C@@H]2C[C@H](O)CN2C(=O)[C@H](CC)NC(=O)[C@H](C)NC)[nH]c2cc(F)ccc12 is ___
Data returned: 13 µM

Data request: Fill in: CC50 at 24 h of CCCCOc1nc(N)c2c(n1)N(Cc1cccc(CN3CCCC3)c1)CC(=O)N2 is ___
Data returned: 23 µM

Data request: Fill in: CC50 at 24 h of C/C=C(/C)C(=O)O[C@H]1C(C)=C[C@]23C(=O)[C@@H](C=C(CO)[C@@H](O)[C@]12O)[C@H]1[C@@H](C[C@H]3C)C1(C)C [PEP005, ingenol-3-angelate] is ___
Data returned: 16 µM

----------
Exercise: state measured CC50 at 24 h for each of the molecules provided.
Assay: Cytotoxicity assay (Cytotoxicity LDH Assay Kit)
Assay type: cell-based
Conditions: human, OM10.1 cells, read-out: CC50 ± SD against OM10.1
Method: To determine the cytotoxicity induced by LRAs and its related compounds, cells (5 × 10^5 cells/mL) were cultured in the presence or absence of LRA. After 24 h, cytotoxicity assays were performed using a Cytotoxicity LDH Assay Kit (Dojindo, Kumamoto, Japan) according to the manufacturer’s instructions. The number of living cells with the drug was measured and compared with those without the drug, and data are shown as percentage (%) of control.
Report only the number, with the unit µM understood.

Data request: Fill in: CC50 at 24 h of CC[C@H](NC(=O)[C@H](C)NC)C(=O)N1C[C@@H](O)C[C@H]1Cc1c(-c2[nH]c3cc(F)ccc3c2C[C@@H]2C[C@H](O)CN2C(=O)[C@H](CC)NC(=O)[C@H](C)NC)[nH]c2cc(F)ccc12 is ___
Data returned: 53

Data request: Fill in: CC50 at 24 h of C/C=C(/C)C(=O)O[C@H]1C(C)=C[C@]23C(=O)[C@@H](C=C(CO)[C@@H](O)[C@]12O)[C@H]1[C@@H](C[C@H]3C)C1(C)C [PEP005, ingenol-3-angelate] is ___
Data returned: 84

----------
test system: ACH-2; assay: Cytotoxicity assay (Cytotoxicity LDH Assay Kit); assay type: cell-based; conditions: ACH-2 cells, 24 h; read-out: CC50 ± SD against ACH-2
REPORTED ENDPOINT: CC50

Data request: Fill in: CC50 of FC(F)(F)Oc1ccc2nc(-c3ccc(OCCOCCOc4ccc(-c5nc6ccc(OC(F)(F)F)cc6[nH]5)nc4)cn3)[nH]c2c1 [AI-10-49] is ___
Data returned: 41 µM

----------
assay: Cytotoxicity assay (Cytotoxicity LDH Assay Kit); assay type: cell-based; settings: human, J1.1 cells, read-out: CC50 ± SD against J1.1
REPORTED ENDPOINT: CC50 at 24 h (µM)
Report only the number, with the unit µM understood.

Data request: Fill in: CC50 at 24 h of C/C=C(/C)C(=O)O[C@H]1C(C)=C[C@]23C(=O)[C@@H](C=C(CO)[C@@H](O)[C@]12O)[C@H]1[C@@H](C[C@H]3C)C1(C)C [PEP005, ingenol-3-angelate] is ___
Data returned: 44

Data request: Fill in: CC50 at 24 h of CC[C@H](NC(=O)[C@H](C)NC)C(=O)N1C[C@@H](O)C[C@H]1Cc1c(-c2[nH]c3cc(F)ccc3c2C[C@@H]2C[C@H](O)CN2C(=O)[C@H](CC)NC(=O)[C@H](C)NC)[nH]c2cc(F)ccc12 [Birinapant] is ___
Data returned: 48

Data request: Fill in: CC50 at 24 h of CCCCOc1nc(N)c2c(n1)N(Cc1cccc(CN3CCCC3)c1)CC(=O)N2 [GS-9620] is ___
Data returned: 35

----------
system: A3.01; test: Cytotoxicity assay (Cytotoxicity LDH Assay Kit); format: cell-based; details: A3.01 cells, 24 h; read-out: CC50 ± SD against A3.01
REPORTED ENDPOINT: CC50

Data request: Fill in: CC50 of FC(F)(F)Oc1ccc2nc(-c3ccc(OCCOCCOc4ccc(-c5nc6ccc(OC(F)(F)F)cc6[nH]5)nc4)cn3)[nH]c2c1 is ___
Data returned: > 100 µM
